All figures here come from ChEMBL document CHEMBL1201862.

Entries and their measured IC50 follow.
biological target: Carboxy-terminal domain RNA polymerase II polypeptide A small phosphatase 1 (Homo sapiens, UniProt Q9GZU7); test: inhibitors of CTDSP1, concentration-response testing, biochemical assay, absorbance-based, actives from ultra-high-throughput screening (AID 540297); format: functional
Sequence (Q9GZU7 whole entry, the tested form may be a part): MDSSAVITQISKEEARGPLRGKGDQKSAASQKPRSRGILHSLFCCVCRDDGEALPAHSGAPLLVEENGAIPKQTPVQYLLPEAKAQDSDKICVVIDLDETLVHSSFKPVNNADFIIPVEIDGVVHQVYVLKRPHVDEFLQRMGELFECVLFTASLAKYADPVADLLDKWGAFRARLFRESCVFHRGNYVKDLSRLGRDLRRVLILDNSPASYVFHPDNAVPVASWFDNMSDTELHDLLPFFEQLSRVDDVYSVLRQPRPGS
The source made the active and inactive calls.
EXPERIMENTAL_READOUT: IC50

| SMI | VAL |
| --- | --- |
| Cc1cc(=O)oc2cc(OCC(=O)N3c4ccccc4NC(=O)C3(C)C)ccc12 | 8.21 µM (active) |
| COc1ccc([N+](=O)[O-])cc1NC(=O)CCS(=O)(=O)c1ccc(Br)cc1 | 4.79 µM (active) |
| COc1ccc(NC(=O)CSc2sc3c(O)cc(=O)[nH]c3c2C#N)c(OC)c1 | 4.21 µM (active) |
| CSc1ccc(NC(=O)CSc2nc3[nH]c(=O)cc(O)c3s2)cc1 | 4.06 µM (active) |
| Cc1oc2c(C)c3oc(=O)c(CC(=O)N[C@@H](CCCNC(N)=O)C(=O)O)c(C)c3cc2c1C | 9.59 µM (active) |

---

Entries and their measured IC50 follow.
target: UniProt:P11940; test: PABP1 MLLE–PAM2 binding inhibitor potency, dose response, biochemical, fluorescence polarization, FITC-PAM2 peptide (AID 602259); type: functional; settings: read-out: IC50_Mean
Sequence (P11940 whole entry): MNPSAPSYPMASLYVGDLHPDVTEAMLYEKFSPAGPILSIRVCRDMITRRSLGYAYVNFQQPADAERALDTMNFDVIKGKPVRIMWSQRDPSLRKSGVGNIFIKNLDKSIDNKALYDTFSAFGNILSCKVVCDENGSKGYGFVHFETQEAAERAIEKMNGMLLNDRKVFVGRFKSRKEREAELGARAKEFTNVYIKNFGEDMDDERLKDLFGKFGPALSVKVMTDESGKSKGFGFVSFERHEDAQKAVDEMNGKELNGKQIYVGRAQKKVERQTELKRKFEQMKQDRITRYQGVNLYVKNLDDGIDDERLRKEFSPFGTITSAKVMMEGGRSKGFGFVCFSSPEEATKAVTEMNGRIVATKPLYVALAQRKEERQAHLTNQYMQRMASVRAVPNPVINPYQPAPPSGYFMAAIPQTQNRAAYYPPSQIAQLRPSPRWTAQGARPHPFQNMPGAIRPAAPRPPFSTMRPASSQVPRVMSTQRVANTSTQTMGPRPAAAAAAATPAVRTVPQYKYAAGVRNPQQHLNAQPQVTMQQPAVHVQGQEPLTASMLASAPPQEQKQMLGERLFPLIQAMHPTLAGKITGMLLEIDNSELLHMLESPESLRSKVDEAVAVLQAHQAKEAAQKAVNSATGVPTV
The source made the active and inactive calls.
EXPERIMENTAL_READOUT: IC50

| MOLECULE | SUBJECT_OF_TEST | VAL |
| --- | --- | --- |
| COc1ccc(Cc2nnc(NC(=O)C3CCCO3)s2)cc1OC (stereo unspecified) | UniProt:P11940 | > 66 µM (inactive) |
| Cc1cc2cc(CNC(=O)c3ccc(Br)o3)ccc2[nH]1 | UniProt:P11940 | 49.6 µM (inactive) |
| O=C(NC(=S)Nc1ccc(Cc2ccncc2)cc1)c1ccccc1Cl | UniProt:P11940 | > 66 µM (inactive) |
| Cc1cc2cc(CNC(=O)c3ccc(S(=O)(=O)N4CCOCC4)cc3)ccc2[nH]1 | UniProt:P11940 | > 66 µM (inactive) |
| COc1ccc2oc(-c3ccncc3)cc(=O)c2c1 | UniProt:P11940 | > 66 µM (inactive) |
| O=C(NC(=S)Nc1ccc(S(=O)(=O)N2CCCCC2)cc1)c1cccs1 | UniProt:P11940 | > 66 µM (inactive) |
| Cc1cc(C)nc(Nc2nc(=O)c3ccccc3s2)n1 | UniProt:P11940 | > 66 µM (inactive) |
| Cc1sc(NC(=O)CCCC(=O)O)c(C(N)=O)c1-c1ccccc1 | UniProt:P11940 | > 66 µM (inactive) |
| CCOC(=O)Cc1csc(NC(=S)NC(=O)c2ccccc2Br)n1 | UniProt:P11940 | > 66 µM (inactive) |
| CCCCOc1ccc(N2C(=O)C(C)CNC2=S)cc1 (stereo unspecified) | UniProt:P11940 | 41.1 µM (inactive) |
| COC(=O)CCCC1=CC2=C(c3ccccc3)C(=O)C(C)(OC(=O)C3CCCC3)C(=O)C2=CN1CCN1CCOCC1 (stereo unspecified) | UniProt:P11940 | > 66 µM (inactive) |

---

biological target: Alkaline phosphatase, placental type (Homo sapiens); test: PLAP enzyme inhibitors, confirmation, biochemical, luminescence (AID 1512); assay type: functional
Sequence (P05187 whole entry): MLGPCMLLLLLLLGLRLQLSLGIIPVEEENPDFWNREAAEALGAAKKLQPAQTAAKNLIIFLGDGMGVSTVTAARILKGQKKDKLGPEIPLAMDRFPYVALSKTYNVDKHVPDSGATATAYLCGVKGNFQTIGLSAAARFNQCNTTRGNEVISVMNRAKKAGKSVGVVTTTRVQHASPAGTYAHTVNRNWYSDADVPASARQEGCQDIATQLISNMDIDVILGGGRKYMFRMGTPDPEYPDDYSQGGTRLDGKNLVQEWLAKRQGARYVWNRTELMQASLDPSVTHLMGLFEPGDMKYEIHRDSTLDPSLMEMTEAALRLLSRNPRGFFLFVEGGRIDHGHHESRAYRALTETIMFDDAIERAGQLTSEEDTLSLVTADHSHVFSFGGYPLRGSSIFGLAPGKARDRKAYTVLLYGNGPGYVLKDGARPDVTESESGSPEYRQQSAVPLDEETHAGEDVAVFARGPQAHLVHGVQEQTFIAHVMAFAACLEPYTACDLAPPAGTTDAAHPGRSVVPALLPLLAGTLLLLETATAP
Calls of active or inactive are those of the source.
Outcomes: True (active), False (inactive)

| SMI | ASSIGNED_LABEL |
| --- | --- |
| Cc1ccc(-n2ncc3c(NNC(=O)c4ccco4)ncnc32)c(C)c1 | False |
| OCCSc1n[nH]c(-c2ccccc2)n1 | False |
| COc1ccccc1-c1nnc(SC)[nH]1 | False |
| COc1ccc(-c2nnc(SCC(=O)c3ccc(O)c(O)c3)n2-c2ccccc2)cc1 | True |
| O=C(CSc1nc2ccccc2o1)c1ccc(O)c(O)c1 | True |
| Cc1ccc(NC(S)=NNC(=O)c2nn(C)c(C)c2Cl)cc1 | False |
